B1: TOR1AIP2 (parent)
chain: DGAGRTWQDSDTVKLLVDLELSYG

variants of: B1; experiment: protein stability index of a GFP-peptide fusion (GPS, HEK-293T) (PSI 1-6); higher = more stable; conditions: c terminus: a fixed tail appended;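 also: lentivirally expressed fusions sorted by FACS into six bins by GFP to DsRed ratio, PSI derived from sequencing read proportions per bin multiplied by bin number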
Where protein stability index equals or exceeds 2, the correct label is satisfied; where it does not, the label is not satisfied.

The following variants have reported results that may help.
Reported protein stability index reaches at least 2 for `L16D` ?
satisfied

Reported protein stability index reaches at least 2 for `E20H` ?
not satisfied

Reported protein stability index reaches at least 2 for `R5P` ?
not satisfied

Further cases:
Reported protein stability index reaches at least 2 for `L21T` ?
not satisfied

Reported protein stability index reaches at least 2 for `V17D` ?
satisfied

Reported protein stability index reaches at least 2 for `L15K` ?
satisfied

Reported protein stability index reaches at least 2 for `R5F` ?
not satisfied

Reported protein stability index reaches at least 2 for `V17I` ?
satisfied
